# System: HT29 colon
# assay notes: NCI tumour cell line growth inhibition, 48 h
parameter measured: TGI

INSERT INTO results (compound, parameter_measured, observed_value) VALUES
  ('O=c1[nH]c(Nc2cccc(Cl)c2)nc2nc[nH]c12', 'TGI', '> 100 µM'),
  ('[N-]=[N+]=Nc1ccc(CNc2cc(=O)[nH]c(=O)[nH]2)cc1', 'TGI', '> 100 µM'),
  ('COc1cc2c(/C=C3/C(=O)N(c4ccccc4)c4ccccc43)c(Cl)[nH]c2cc1C', 'TGI', '> 31 µM'),
  ('CCOC(=O)CC1NC(=O)CS1 (stereo unspecified)', 'TGI', '> 100 µM'),
  ('CCO/C(O)=C(/C(=N)N1CCCC1)C(=O)Nc1cccc(C(F)(F)F)c1', 'TGI', '> 100 µM'),
  ('COc1cc2nc(-c3ccc(C(F)(F)F)cc3)cc(OCCCN3CCCCC3)c2cc1OC', 'TGI', '2.52 µM');

---

Items are presented alongside their recorded TGI.
# System: KM20L2 colon
# assay notes: NCI tumour cell line growth inhibition, 48 h
parameter measured: TGI

INSERT INTO measurements (compound, parameter_measured, observed_value) VALUES
  ('O=C(OC[C@H]1O[C@@H](OC(=O)c2cc(O)c(O)c(O)c2)[C@H](OC(=O)c2cc(O)c(O)c(O)c2)[C@@H](OC(=O)c2cc(O)c(O)c(O)c2)[C@@H]1OC(=O)c1cc(O)c(O)c(O)c1)c1cc(O)c(O)c(O)c1', 'TGI', '> 100 µM'),
  ('CCOC(=O)COS(=O)(=O)C(F)(F)F', 'TGI', '> 100 µM'),
  ('C=C=C(C(=O)OC)S(=O)c1ccc([N+](=O)[O-])cc1[N+](=O)[O-] (stereo not drawn)', 'TGI', '63.8 µM'),
  ('COc1cc2c(cc1OC)-c1c3c(cc4c1[C@@H](C2)N(C)CC4)OCO3', 'TGI', '31.9 µM'),
  ('CC(=O)O[C@@H]1C2C(=O)OC(=O)C2C2CCC[C@]23O[C@H]13 (stereo partly drawn)', 'TGI', '> 100 µM'),
  ('CCOC(=O)[C@H]1Nc2ccc(OC)cc2C2c3ccccc3CC21 (stereo partly drawn)', 'TGI', '> 100 µM'),
  ('O=Cc1ccc(-c2cccs2)s1', 'TGI', '> 100 µM'),
  ('Cc1c(Cl)cccc1NC(=O)CC1C(=O)Nc2ccccc2S1(=O)=O (stereo not drawn)', 'TGI', '44.9 µM'),
  ('CC(=O)Oc1ccc(C2COc3cc(OC(C)=O)c(OC(C)=O)cc3C2)cc1 (stereo not drawn)', 'TGI', '75.5 µM'),
  ('NCCCCNCCCNC(=O)c1nc(-c2csc(CCN)n2)sc1Cl', 'TGI', '> 100 µM'),
  ('CC1(Cl)CC2C(CC1Sc1nnnn1-c1ccccc1)C2(C)C (stereo not drawn)', 'TGI', '> 100 µM'),
  ('CCOC(=O)CC1NC(=O)CS1 (stereo not drawn)', 'TGI', '> 100 µM'),
  ('CN[C@@H]1C[C@H]2O[C@@](C)([C@@H]1OC)n1c3ccccc3c3c4c(c5c6ccccc6n2c5c31)C(=O)N[C@@H]4O', 'TGI', '2.53 µM');
